Where these numbers come from: patent US10669284B2

Test system: phosphorylation of eIF4E at ser209 in MV4.11 cell line
method summary: MNK cellular activity phospho-eIF4E detection assay (Alphascreen Surefire)
Type: cell-based
assay setup: Homo sapiens; MV4.11 cell line, phospho-eIF4E (ser209) Alphascreen Surefire; read-out: P(IC50) elF4E (converted)
property measured: log10(IC50) (log10 of the value in nM)
Hey, these are logged values: log10 of IC50, nM being the unit before logging.

[[record]]
compound = "CN1CCN(C(=O)c2nc3c(N4CCc5ccccc54)ncnc3s2)CC1"
property_measured = "log10(IC50)"
endpoint_value = 2.70

[[record]]
compound = "O=C(NC1CCOCC1)c1nc2c(N3CCc4cccc(F)c43)ncnc2s1"
property_measured = "log10(IC50)"
endpoint_value = 2.20


For every item below, please supply its log10(IC50).
1. CN(C)Cc1cn(-c2ncnc3sc(C(=O)NC4CCOCC4)nc23)c2ccccc12
2. CO[C@@H]1CCCC[C@H]1Oc1cc(F)ccc1Nc1ncnc2sc(C(=O)NCCCN(C)C)nc12
3. O=C(NC1COC1)c1nc2c(N3CCc4ccccc43)ncnc2s1
4. CC(C)Oc1cc(F)ccc1Nc1ncnc2sc(C(=O)NC3CC4CCC(C3)N4C(=O)OC(C)(C)C)nc12 (stereo not drawn)

1.90
2.50
1.20
2.40
